The origin of these recorded values is patent US12391679B2.

target: SIK2 (Homo sapiens); construct: purchased ThermoFisher Scientific PV4792; assay: 33P radioactive kinase assay, SIK2; type: biochemical; further: AMARA 5 µM, 10 µM ATP
Sequence (Q9H0K1 whole entry): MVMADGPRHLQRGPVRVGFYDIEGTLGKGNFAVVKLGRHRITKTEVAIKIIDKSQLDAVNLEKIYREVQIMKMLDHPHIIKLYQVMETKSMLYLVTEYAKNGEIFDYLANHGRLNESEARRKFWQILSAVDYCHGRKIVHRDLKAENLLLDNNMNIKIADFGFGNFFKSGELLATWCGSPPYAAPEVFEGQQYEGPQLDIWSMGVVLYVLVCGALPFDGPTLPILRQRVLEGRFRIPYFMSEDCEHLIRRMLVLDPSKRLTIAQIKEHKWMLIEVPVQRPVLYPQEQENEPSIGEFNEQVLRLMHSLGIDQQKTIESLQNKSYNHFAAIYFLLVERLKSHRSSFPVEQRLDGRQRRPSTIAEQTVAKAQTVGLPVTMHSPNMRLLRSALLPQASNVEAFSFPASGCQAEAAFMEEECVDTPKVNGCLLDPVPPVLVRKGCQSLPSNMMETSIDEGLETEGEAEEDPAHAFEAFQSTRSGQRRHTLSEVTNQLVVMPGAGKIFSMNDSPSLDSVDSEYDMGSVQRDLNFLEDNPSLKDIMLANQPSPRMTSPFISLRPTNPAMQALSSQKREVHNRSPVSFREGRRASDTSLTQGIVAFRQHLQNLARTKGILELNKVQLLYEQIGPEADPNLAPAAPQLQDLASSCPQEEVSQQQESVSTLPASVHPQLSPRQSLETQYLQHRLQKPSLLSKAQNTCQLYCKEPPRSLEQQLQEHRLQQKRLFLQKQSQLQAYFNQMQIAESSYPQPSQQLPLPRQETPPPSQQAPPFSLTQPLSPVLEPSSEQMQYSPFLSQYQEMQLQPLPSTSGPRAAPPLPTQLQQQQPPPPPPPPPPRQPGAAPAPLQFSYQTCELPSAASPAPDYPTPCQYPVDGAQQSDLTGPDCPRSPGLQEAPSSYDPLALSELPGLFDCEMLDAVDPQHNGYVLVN
quantity_kind: IC50

1) COc1cc(-n2cnc3cc(C4CCNCC4)ccc32)cc(OC)c1C(=O)NCC(F)(F)F [Cpd 3] :: 100 to 500 nM
2) COc1cc(-c2cnc3cc(C4(C#N)CCC4)ccn23)cc(OC(F)F)c1C(=O)NC1CC1 [Cpd 34] :: > 500 nM
3) COc1cc(-n2cnc3cc(C(C)C#N)ccc32)cc(OC)c1C(=O)NCC(F)(F)F (stereo not drawn) [Cpd 15] :: > 500 nM
4) COc1cc(-c2cnc3cc(C(C)(C)C#N)ccn23)cc(OC)c1C(=O)NCC#N [Cpd 32] :: > 500 nM
5) COc1cc(-c2cnc3cc(C(C)(C)C#N)ccn23)cc2c1C(=O)NCC2 [Cpd 20] :: > 500 nM
6) COc1cc(-n2cnc3cc(C4CCCN(C(=O)OC(C)(C)C)C4)ccc32)cc(OC)c1C(=O)NCC(F)(F)F (stereo not drawn) [Cpd 7] :: > 500 nM
